Molecular target: UniProtKB P31941
Sequence (P31941 whole entry): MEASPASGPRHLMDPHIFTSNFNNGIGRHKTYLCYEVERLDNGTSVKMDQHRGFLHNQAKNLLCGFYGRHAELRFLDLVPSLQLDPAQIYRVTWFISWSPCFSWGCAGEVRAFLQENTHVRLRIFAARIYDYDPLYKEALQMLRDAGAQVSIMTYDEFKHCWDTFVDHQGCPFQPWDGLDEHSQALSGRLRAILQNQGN
Experiment: SAR analysis of small molecule inhibitors of APOBEC3A DNA Deaminase via a fluorescence-based single-stranded DNA deaminase assay.
Format: functional
Details: read-out: IC50_Mean
Active and inactive are the calls of the source.

[
  {
    "molecule": "Cc1ccc(CC(=O)Nc2nnc(-c3ccncc3)s2)cc1",
    "IC50": "> 99 µM (inactive)"
  },
  {
    "molecule": "CCc1ccc(Nc2nc(Nc3cccc(OC)c3)nc(N3CCOCC3)n2)cc1",
    "IC50": "> 99 µM (inactive)"
  },
  {
    "molecule": "CCC(C(=O)Nc1nnc(SCCOC)s1)c1ccccc1 (centres undefined)",
    "IC50": "> 99 µM (inactive)"
  },
  {
    "molecule": "COc1ccc(-c2nnc(S)[nH]2)cc1",
    "IC50": "> 99 µM (inactive)"
  }
]

====

Test: HEp-2 cell cytotoxicity, dose response, cytotoxicity control for RSV inhibitor project, HTS (AID 2410)
Format: functional
Conditions: human respiratory syncytial virus
Active and inactive are the calls of the source.
experimental-readout: CC50

[
  {
    "compound": "CCOC(=O)c1sc(Nc2cccc(Cl)c2)nc1C",
    "experimental-readout": "CC50",
    "reading": "> 50 µM (active)"
  },
  {
    "compound": "O=C(O)c1ccccc1Nc1ccc([N+](=O)[O-])cc1",
    "experimental-readout": "CC50",
    "reading": "8.65 µM (active)"
  },
  {
    "compound": "N#Cc1cn(CCOc2ccc(F)cc2)c2ccccc12",
    "experimental-readout": "CC50",
    "reading": "14.1 µM (active)"
  },
  {
    "compound": "CCOc1ccccc1CNC(=O)c1cc2oc3ccccc3c2n1CC",
    "experimental-readout": "CC50",
    "reading": "13.8 µM (active)"
  },
  {
    "compound": "CCOC(=O)c1[nH]c2ccc(OC)cc2c1C(SCC(=O)O)c1ccc(C(F)(F)F)cc1 (stereo not given)",
    "experimental-readout": "CC50",
    "reading": "21.1 µM (active)"
  }
]

====

Each item that follows carries a reported IC50.
Target: Aminopeptidase N (Plasmodium falciparum FcB1/Columbia)
Sequence (O96935 whole entry): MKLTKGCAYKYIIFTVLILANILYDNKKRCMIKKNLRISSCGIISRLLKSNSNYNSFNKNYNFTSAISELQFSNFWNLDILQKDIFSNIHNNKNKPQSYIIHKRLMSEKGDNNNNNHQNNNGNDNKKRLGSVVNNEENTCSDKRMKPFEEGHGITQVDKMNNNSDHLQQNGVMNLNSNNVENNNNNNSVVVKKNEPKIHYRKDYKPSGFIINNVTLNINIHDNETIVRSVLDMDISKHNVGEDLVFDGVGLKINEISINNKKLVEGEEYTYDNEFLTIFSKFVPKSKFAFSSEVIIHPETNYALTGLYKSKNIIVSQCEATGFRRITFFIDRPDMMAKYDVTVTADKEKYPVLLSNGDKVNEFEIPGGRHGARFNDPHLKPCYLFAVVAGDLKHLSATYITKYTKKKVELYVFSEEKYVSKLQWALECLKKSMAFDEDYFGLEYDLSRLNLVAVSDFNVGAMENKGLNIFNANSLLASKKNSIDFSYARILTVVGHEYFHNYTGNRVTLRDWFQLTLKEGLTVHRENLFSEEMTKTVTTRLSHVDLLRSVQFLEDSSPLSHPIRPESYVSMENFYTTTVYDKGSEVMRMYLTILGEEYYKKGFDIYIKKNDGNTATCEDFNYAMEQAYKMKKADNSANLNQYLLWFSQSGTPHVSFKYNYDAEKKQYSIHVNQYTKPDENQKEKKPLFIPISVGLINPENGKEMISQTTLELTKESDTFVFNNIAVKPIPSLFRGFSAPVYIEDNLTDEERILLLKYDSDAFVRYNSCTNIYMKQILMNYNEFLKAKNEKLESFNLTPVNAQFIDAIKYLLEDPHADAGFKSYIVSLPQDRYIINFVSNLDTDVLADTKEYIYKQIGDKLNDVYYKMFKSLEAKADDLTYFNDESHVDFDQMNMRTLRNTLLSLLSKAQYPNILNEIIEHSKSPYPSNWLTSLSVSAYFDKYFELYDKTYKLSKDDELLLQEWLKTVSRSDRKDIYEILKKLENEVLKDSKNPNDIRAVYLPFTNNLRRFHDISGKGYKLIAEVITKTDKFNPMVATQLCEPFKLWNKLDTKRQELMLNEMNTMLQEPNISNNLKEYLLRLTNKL
Assay: P. falciparum M1AAP inhibitors, biochemical, fluorogenic H-Leu-NHMec substrate, 1536-well (AID 1445)
Design: species or system Plasmodium falciparum 3D7, 3D7
The source made the active and inactive calls.

[
  {
    "compound": "CCOC(=O)c1sc2nc3c(SCC(=O)O)cc(C(=O)c4cc(F)ccc4O)cn3c(=O)c2c1C",
    "IC50": "21.9 µM (active)"
  },
  {
    "compound": "O=C(COc1ccccc1/C=C1\\SC(=O)NC1=O)Nc1ccccc1",
    "IC50": "32.6 µM (active)"
  },
  {
    "compound": "COc1cc(/C=C2\\SC(=S)N(NS(=O)(=O)c3ccc(C)cc3)C2=O)cc(OC)c1OC",
    "IC50": "33.1 µM (active)"
  },
  {
    "compound": "COc1ccc(OC)c(NC(=O)C2C3C=CC(C3)C2C(=O)NCc2cccnc2)c1 (centres undefined)",
    "IC50": "48.2 µM (active)"
  },
  {
    "compound": "CCCOc1ccc(C(C)=O)cc1CSc1nc(O)cc(=O)[nH]1",
    "IC50": "109 µM (active)"
  },
  {
    "compound": "CCOC(=O)C1=C(Nc2ccccc2)S/C(=C\\c2ccc(OCC(=O)O)c(OCC)c2)C1=O",
    "IC50": "60.2 µM (active)"
  },
  {
    "compound": "CCCS(=O)(=O)N1CCC(C(=O)NCc2ccc3c(c2)OCO3)CC1",
    "IC50": "13.1 µM (active)"
  },
  {
    "compound": "COc1cc(/C=C2\\C(=N)N3C(=NC2=O)Sc2cc(S(C)(=O)=O)ccc23)ccc1O",
    "IC50": "45.7 µM (active)"
  },
  {
    "compound": "Cc1[nH][nH]c(=O)c1C(c1cc([N+](=O)[O-])ccc1O)c1c(C)[nH][nH]c1=O",
    "IC50": "30.1 µM (active)"
  }
]

====

Molecular target: UniProt:Q9HC16
Sequence (Q9HC16 whole entry): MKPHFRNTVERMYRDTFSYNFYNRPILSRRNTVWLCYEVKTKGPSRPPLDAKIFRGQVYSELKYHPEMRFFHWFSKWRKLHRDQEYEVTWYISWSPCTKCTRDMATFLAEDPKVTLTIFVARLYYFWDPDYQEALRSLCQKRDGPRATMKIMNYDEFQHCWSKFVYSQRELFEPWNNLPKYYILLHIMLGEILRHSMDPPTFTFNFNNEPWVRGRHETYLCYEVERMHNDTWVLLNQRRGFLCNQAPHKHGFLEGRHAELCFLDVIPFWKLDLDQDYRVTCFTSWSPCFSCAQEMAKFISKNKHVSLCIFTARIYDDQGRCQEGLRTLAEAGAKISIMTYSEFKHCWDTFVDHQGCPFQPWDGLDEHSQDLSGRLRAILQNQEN
Test: APOBEC3G deaminase inhibitors, SAR follow-up, biochemical, fluorescence, single-stranded DNA substrate (AID 602136)
Assay type: functional
Conditions: read-out: IC50_Mean
Active and inactive are the calls of the source.
Labels: class 1 for active, class 0 for inactive

[
  {
    "compound": "CCc1ccc(Nc2nc(Nc3cccc(OC)c3)nc(N3CCOCC3)n2)cc1",
    "category-label": "class 0"
  },
  {
    "compound": "COc1ccc(-c2nnc(S)[nH]2)cc1",
    "category-label": "class 1"
  },
  {
    "compound": "Cc1ccc(CC(=O)Nc2nnc(-c3ccncc3)s2)cc1",
    "category-label": "class 0"
  },
  {
    "compound": "CCC(C(=O)Nc1nnc(SCCOC)s1)c1ccccc1 (centres undefined)",
    "category-label": "class 0"
  }
]

====

Molecular target: Beta-2 adrenergic receptor (Homo sapiens, UniProt P07550)
Sequence (P07550 whole entry): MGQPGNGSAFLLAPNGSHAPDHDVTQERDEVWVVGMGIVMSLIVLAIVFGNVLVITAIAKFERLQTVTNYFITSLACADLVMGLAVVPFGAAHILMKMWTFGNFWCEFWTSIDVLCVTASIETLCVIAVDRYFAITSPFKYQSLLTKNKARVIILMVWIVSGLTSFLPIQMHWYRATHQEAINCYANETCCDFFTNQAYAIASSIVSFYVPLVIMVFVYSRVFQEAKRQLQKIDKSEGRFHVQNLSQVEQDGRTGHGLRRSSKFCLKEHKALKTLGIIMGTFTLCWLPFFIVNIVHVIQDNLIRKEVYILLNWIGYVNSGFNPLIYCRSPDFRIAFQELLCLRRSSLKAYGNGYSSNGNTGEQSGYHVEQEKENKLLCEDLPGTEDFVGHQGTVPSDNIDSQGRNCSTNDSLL
Assay: beta2AR agonists driving receptor internalization, dose response, cell-based, FAP fluorogen, flow cytometry, cherry pick 1 (AID 588763)
Format: functional
Active and inactive are the calls of the source.
Possible outcomes: 1 for active, -1 for inactive

[
  {
    "compound": "N#CC1=C(N)OC2=C(CCc3ccccc32)C1c1ccccc1 (stereo not given)",
    "system-tested": "Beta-2 adrenergic receptor (Homo sapiens, UniProt P07550)",
    "category-label": -1
  },
  {
    "compound": "O=C1CC(c2ccccc2)(c2ccccc2)c2ccccc21",
    "system-tested": "Beta-2 adrenergic receptor (Homo sapiens, UniProt P07550)",
    "category-label": -1
  },
  {
    "compound": "O=C(C(c1ccccc1)c1ccccc1)N1CCN(c2ccccn2)CC1",
    "system-tested": "Beta-2 adrenergic receptor (Homo sapiens, UniProt P07550)",
    "category-label": 1
  },
  {
    "compound": "Cn1c(N2CCN(c3ccccn3)CC2)nc2c1c(=O)n(Cc1ccc(Cl)cc1)c(=O)n2C",
    "system-tested": "Beta-2 adrenergic receptor (Homo sapiens, UniProt P07550)",
    "category-label": 1
  },
  {
    "compound": "CCOc1ccc2nc(NC(=O)CSc3nc4cccnc4n3C)sc2c1",
    "system-tested": "Beta-2 adrenergic receptor (Homo sapiens, UniProt P07550)",
    "category-label": 1
  }
]
